pIC50: −log10 of the molar value.
Recorded pIC50 for compounds tested on TGF-beta receptor type-1 (Homo sapiens, UniProt P36897), drawn from a number of studies.

Examples with answers:
COc1cc(-c2cncc(-c3ccc4c(c3)CC(=O)N4C)c2)cn(C(C)C)c1=O
6.21
O=C1CNC(=O)C(c2ccc(-c3ccn4c(-c5cccc6ncccc56)cnc4c3)cc2)N1 (stereo not drawn)
6.14
Cc1cccc(-c2cc(Nc3cc(F)nc(N4CCOCC4)n3)c3cccnc3n2)n1
< 5.00
Nc1nccc(Nc2cc(-c3cc(Cl)ccc3F)nc3ncccc23)n1
> 7.00
NCC1CC(n2cc(-c3ccc4c(ccn4Cc4ccccc4)c3)c3c(N)ncnc32)C1 (stereo not drawn)
5.30
C[C@@H](CO)NC(=O)c1cnccc1Nc1cc(-c2cc(Cl)ccc2F)c(=O)n2c1N(C)CCC2
5.70 to 6.30
O=c1c2cnccc2c(-c2cc(-c3cc(F)ccc3F)nc3ncccc23)cn1CCO
> 6.00
Cc1cccc2c(Nc3ccnc(Nc4ccc(CC5CCNCC5)cc4)n3)cnnc12
> 8.00

Form field, pIC50 with TGF-beta receptor type-1 (Homo sapiens, UniProt P36897), item CNc1nc(-c2ccc(C)o2)c2c(N)c(C(N)=O)sc2n1 : 7.44

Form field, pIC50 with TGF-beta receptor type-1 (Homo sapiens, UniProt P36897), item Cc1cccc2c(Nc3ccnc(Nc4ccc(N5CC6CC5CN6C)cc4)n3)cnnc12 (stereo not drawn) : > 8.00

Form field, pIC50 with TGF-beta receptor type-1 (Homo sapiens, UniProt P36897), item Nc1nccc2c(-c3cc(-c4cc(Cl)ccc4F)nc4ncccc34)coc12 : > 6.00

Form field, pIC50 with TGF-beta receptor type-1 (Homo sapiens, UniProt P36897), item CN1CCN(c2cc(Nc3cc(-c4cc(Cl)ccc4F)nc4ncccc34)ccn2)CC1 : 5.00 to 6.00
